Provide the recorded IC50 for the entries that follow.
- Subject Of Test: Calpain-2 catalytic subunit (Sus scrofa, UniProt P43367)
- Sequence (P43367 whole entry): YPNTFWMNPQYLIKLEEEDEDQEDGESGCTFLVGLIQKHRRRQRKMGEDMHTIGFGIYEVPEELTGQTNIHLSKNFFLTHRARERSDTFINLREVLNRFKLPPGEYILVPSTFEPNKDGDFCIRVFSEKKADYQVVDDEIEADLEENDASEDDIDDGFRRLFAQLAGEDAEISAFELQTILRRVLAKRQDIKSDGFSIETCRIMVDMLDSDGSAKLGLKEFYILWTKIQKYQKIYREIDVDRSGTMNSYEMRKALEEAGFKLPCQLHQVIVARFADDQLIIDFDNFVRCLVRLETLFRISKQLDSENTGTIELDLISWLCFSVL
- Protocol Details: pig calpain II inhibitor potency, dose response, biochemical, fluorogenic peptide substrate (AID 1420)
- Format: functional

These recorded examples may help you get a feel for the data.
COc1cc(CNc2nc(C)c([N+](=O)[O-])c(C)c2C#N)cc(OC)c1 ... 1.63 µM (not active)
COc1ccc(NC(S)=NCCc2c(C)[nH]c3ccc(OC)cc23)cc1 ... 30.1 µM (not active)
CCOC(=O)c1ccc(CC(=O)c2ccc(O)c(O)c2O)o1 ... > 50 µM (not active)
CCCOC(=O)c1ccc(Oc2c[nH]nc2-c2ccc(OCC)cc2O)cc1 ... 19.6 µM (not active)
CCCCOC(=O)c1ccc(NC(=O)c2c(Cl)ccc(Cl)c2OC)cc1 ... 10.8 µM (not active)
Cc1noc(C)c1COC(=O)C(c1ccccc1)c1ccccc1 ... 11.3 µM (not active)
O=C(COC(=O)c1cccc(O)c1)Nc1ccc(Cl)cc1C(=O)c1ccccc1 ... 17.9 µM (not active)
COc1ccnc(Oc2ccc3ccccc3c2)c1C#N ... > 50 µM (not active)
COc1ccc(N2CCN(C(=O)Nc3ccc(S(=O)(=O)N(C)C)cc3)CC2)cc1 ... < 0.4 µM (not active)
O=C(CN1C(=O)NC(Cc2ccccc2)C1=O)Nc1ccccc1 (configuration not stated) ... 17.4 µM (not active)

Below is a list of molecules. For each, state its recorded IC50.
1. Cc1noc(C)c1COc1ccc(C(=O)OCc2nnc(-c3ccc(Cl)cc3)o2)cc1
2. Cc1ccc(NC2OC(CO)C(O)C2O)cc1[N+](=O)[O-] (configuration not stated)

Completion:
["4.47 µM (not active)", "> 50 µM (not active)"]

###

- Subject Of Test: Cytochrome P450 3A4 (Homo sapiens)
- Sequence (P08684 whole entry): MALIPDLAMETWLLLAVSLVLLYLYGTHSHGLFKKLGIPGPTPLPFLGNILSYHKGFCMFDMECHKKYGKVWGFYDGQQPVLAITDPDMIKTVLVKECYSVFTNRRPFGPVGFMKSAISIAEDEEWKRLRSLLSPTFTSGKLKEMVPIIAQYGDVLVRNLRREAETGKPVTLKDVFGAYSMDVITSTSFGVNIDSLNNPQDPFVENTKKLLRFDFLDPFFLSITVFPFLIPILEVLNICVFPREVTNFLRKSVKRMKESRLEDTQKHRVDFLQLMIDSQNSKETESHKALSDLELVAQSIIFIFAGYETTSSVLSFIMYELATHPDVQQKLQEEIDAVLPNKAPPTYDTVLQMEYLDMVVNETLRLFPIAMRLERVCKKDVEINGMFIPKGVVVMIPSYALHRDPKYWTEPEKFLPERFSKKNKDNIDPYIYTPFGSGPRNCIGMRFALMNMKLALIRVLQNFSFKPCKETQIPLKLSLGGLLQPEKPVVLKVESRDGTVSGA
- Protocol Conditions: Potency
Provide the recorded AC50 for the entries that follow.

CCNc1cc(O)ccc1C ... 25.1 µM (inconclusive)
CC(=O)Oc1c2c(c3c(c1CC=C(C)C)O[C@@]14C(=CC5CC1C(C)(C)OC4(C/C=C(\C)C(=O)O)C5=O)C3=O)OC(C)(CCC=C(C)C)C=C2 (stereo not given in full) ... 39.8 µM (inconclusive)
CC(=O)OC1CC2C(C)(C)C(O)C=C[C@@]2(C)C2CC[C@]3(C)C(=CC(=O)OC3c3ccoc3)[C@]12C (stereo not given in full) ... 15.8 µM (inconclusive)
C=CCN=C=S [ALLYL ISOTHIOCYANATE] ... 39.8 µM (inconclusive)

--- query ---
Prompt: // AC50 lookup, key: CCN(CC)CCn1c(-c2ccccc2)nc2c(NCCOC)nc(C)nc21
Completion: 12.6 µM (inconclusive)

###

- Subject Of Test: Protein RecA (Mycobacterium tuberculosis)
- Sequence (P9WHJ3 whole entry): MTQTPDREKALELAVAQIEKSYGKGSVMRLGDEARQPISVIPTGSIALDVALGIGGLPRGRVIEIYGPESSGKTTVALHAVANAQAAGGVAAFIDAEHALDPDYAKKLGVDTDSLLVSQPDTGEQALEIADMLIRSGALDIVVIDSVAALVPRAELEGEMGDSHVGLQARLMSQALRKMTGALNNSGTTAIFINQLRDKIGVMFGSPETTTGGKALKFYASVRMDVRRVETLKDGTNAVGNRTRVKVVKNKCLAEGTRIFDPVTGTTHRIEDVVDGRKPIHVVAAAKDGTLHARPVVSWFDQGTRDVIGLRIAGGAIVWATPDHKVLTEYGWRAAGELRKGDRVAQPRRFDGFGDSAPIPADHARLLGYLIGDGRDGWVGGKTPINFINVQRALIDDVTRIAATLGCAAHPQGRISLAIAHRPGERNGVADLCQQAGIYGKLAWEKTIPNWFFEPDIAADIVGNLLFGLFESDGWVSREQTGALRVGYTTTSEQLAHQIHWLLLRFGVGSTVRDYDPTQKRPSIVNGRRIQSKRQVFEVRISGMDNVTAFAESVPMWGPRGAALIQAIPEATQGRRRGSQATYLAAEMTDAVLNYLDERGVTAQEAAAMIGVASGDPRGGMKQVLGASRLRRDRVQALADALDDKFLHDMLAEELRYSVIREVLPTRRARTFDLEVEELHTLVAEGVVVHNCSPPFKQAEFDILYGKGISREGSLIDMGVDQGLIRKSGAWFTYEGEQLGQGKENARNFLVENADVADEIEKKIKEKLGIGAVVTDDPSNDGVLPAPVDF
- Protocol Details: Fluorescence Cell-Free Homogeneous Dose Retest to Identify Inhibitors of RecA-Intein Splicing Activity. [Related pubchem assays (depositor defined):AID2097, AID2223, AID489010, AID492950]
- Assay type: functional
Calls of active or inactive are those of the source.
Response enum: active, inactive

Worked examples follow.
CCN=C(S)N=Nc1c(O)[nH]c2ccc([N+](=O)[O-])cc12 ... active
Cc1cc(C)c(S(C)(=O)=O)c(Oc2cccc(C(F)(F)F)c2)n1 ... inactive
CN1CCc2nc(SCc3ccc(Cl)cc3)c(C#N)c(-c3cccs3)c2C1 ... active
COc1ccccc1-c1cc(C(F)(F)F)nc(S(C)(=O)=O)n1 ... active
CCOc1cc(/C=C(\C#N)C(=O)Nc2cccc(C(=O)O)c2)cc(Br)c1OC(=O)c1ccc(OC)cc1 ... active

Prompt: Entry O=C1C=Cc2ccccc2C1=O : call = ?
Completion: active

Prompt: Entry CC(=O)n1cc(N(C(=O)CCl)c2ccc(Cl)cc2)c2ccccc21 : call = ?
Completion: active

###

- Subject Of Test: Photoreceptor-specific nuclear receptor (Homo sapiens, UniProt Q9Y5X4)
- Sequence (Q9Y5X4 whole entry): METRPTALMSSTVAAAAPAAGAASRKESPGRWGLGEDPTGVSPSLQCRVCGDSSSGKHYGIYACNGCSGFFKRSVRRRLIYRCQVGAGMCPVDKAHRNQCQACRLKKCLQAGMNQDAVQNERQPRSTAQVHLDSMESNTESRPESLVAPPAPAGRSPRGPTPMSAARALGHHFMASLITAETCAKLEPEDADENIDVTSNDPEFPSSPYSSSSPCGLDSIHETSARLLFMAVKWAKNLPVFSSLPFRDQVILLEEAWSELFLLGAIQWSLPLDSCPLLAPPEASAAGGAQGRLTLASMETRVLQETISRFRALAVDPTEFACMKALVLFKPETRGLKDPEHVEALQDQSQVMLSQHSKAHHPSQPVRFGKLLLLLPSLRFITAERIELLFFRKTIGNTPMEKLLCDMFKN
- Assay type: functional, cell-based
Active and inactive are the calls of the source.
Provide the recorded IC50 for the entries that follow.

Cc1ccnc(NC(=O)C2CCN(S(=O)(=O)c3c(C)c(C)cc(C)c3C)CC2)c1 ... 1.85 µM (active)
Cc1ccc(S(=O)(=O)N2[C@@H](c3ccc(Br)cc3)C(C(=O)O)=CC[C@H]2c2ccc(Cl)c(Cl)c2)cc1 ... 5.2 µM (active)
O=S(=O)(/C(=C\c1ccc(C(F)(F)F)cc1)c1nc2ccccc2[nH]1)c1ccccc1 ... 4.42 µM (active)

--- query ---
Prompt: // IC50 lookup, key: O=C(C(=Cc1ccccc1)CN1CCCCC1)c1ccccc1
Completion: 3.73 µM (active)

###

- Subject Of Test: Streptokinase A (Streptococcus pyogenes serotype M1)
- Sequence (P10520 whole entry): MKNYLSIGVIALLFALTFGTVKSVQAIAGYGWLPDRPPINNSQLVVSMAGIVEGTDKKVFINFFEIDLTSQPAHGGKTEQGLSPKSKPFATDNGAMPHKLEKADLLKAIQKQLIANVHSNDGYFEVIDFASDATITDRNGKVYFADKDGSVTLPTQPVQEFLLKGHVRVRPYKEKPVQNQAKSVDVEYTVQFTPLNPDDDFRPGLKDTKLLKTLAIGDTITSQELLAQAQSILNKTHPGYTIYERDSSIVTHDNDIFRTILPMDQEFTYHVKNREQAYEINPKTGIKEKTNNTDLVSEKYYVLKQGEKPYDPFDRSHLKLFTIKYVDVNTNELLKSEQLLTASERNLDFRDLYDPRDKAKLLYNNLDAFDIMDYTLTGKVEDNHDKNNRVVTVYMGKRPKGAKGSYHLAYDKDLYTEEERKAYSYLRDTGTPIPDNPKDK
- Protocol Details: S. pyogenes streptokinase expression inhibitors, potency, dose response, plasminogen activation absorbance, OD405 (AID 1914);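 further: secreted streptokinase activity via plasminogen activation per viability signal from cell pellet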
- Format: functional, Streptococcus pyogenes M1 GAS
Activity calls are given as the source filed them.
Provide the recorded EC50 for the entries that follow.

O=C1/C(=C/Nc2ccc(O)cc2)c2ccccc2C(=O)N1Cc1ccccc1 ... 18.6 µM (active)
COc1ccc(-c2[nH]ncc2N=Nc2cc(C)cc(C)c2)cc1 ... > 150 µM (not active)
COc1ccc2cc(C(=O)C3CCCN(Cc4cccc(C)n4)C3)ccc2c1 (stereo not given) ... > 150 µM (not active)
Cc1ccc(-c2nn(CCC(=O)O)cc2/C=C\C(=O)c2ccc(Br)cc2)cc1 ... 2.33 µM (active)

--- query ---
Prompt: // EC50 lookup, key: COc1ccc(Cl)cc1C(=O)NNC(=S)NC(=O)c1cc(-c2ccccc2)nc2ccccc12
Completion: > 150 µM (not active)

###

- Subject Of Test: UniProt:P49862
- Sequence (P49862 whole entry): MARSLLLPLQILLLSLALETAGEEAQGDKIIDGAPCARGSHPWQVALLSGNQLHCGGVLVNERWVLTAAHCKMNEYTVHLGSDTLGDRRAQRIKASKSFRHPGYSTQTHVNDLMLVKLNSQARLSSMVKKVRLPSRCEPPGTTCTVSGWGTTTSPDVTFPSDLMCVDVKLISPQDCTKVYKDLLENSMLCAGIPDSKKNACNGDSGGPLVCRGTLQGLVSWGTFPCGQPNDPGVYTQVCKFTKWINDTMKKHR
- Protocol Details: Fluorescence Intensity-based biochemical primary high throughput dose response assay to identify activators of kallikrein-7 (K7) zymogen.
The source made the active and inactive calls.
Metric: EC50

These recorded examples may help you get a feel for the data.
O=C(NC1CCC(O)CC1)c1cc(-c2ccco2)nc2ccccc12 (stereo not given) ... > 69.5 µM (inactive)
COc1ccc(/C=C/C(O)=C2/C(=O)NC3(C)CC2c2ccccc2O3)c(OC)c1OC (stereo not given) ... > 69.6 µM (inactive)
Nc1nc2ncccn2c1-c1ccc(F)c(F)c1 ... 9.39 µM (active)
COc1ccc(-c2cc(-c3ccccc3)n3ncnc3n2)cc1 ... > 69.5 µM (inactive)

Prompt: // EC50 lookup, key: COC(=O)CNC(=O)COC(=O)c1cc(Cl)cc(Cl)c1N
Completion: > 69.5 µM (inactive)
